- targetOrTestSystem: protein-protein interaction between Kras and SOS1 (biotin-tagged human Kras loaded with GDP, His-tagged human SOS1) (Homo sapiens (Human), UniProt P01116, G12D)
- protocol: Protein-protein interaction inhibition between Kras and SOS1 (KrasG12D-SOS PPI) using AlphaScreen;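 note: kras produced in E. coli, Ni-coupled donor beads and streptavidin acceptor beads, excitation 680 nm with emission detected at 520–620 nm via singlet oxygen transfer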
- Type: biochemical
- testSettings: AlphaScreen; biotin-tagged human Kras loaded with GDP, His-tagged human SOS1; read-out: KRAS G12D-SOS PPI IC50
Numbered stars: 1 amine (or outer) side, 2 acyl side, 3 side chain; on linkers, the order of the positions; unused ones are H or OH. Bridge positions count the residues as written; N and C are the ends. Square brackets hold non-standard residues; d marks the D form. Peptide text beside a SMILES is read from it. * marks the point of attachment. hPhe(3-Cl-4-CF3) = N[C@@H](CCc1ccc(C(F)(F)F)c(Cl)c1)C(=O)O; hPhe(3-F,4-CF3) = N[C@@H](CCc1ccc(C(F)(F)F)c(F)c1)C(=O)O; NMePhe(3-Me) = CN[C@@H](Cc1cccc(C)c1)C(=O)O; NMePhe(2-F) = CN[C@@H](Cc1ccccc1F)C(=O)O; NMeGly(cPent) = CN[C@H](C(=O)O)C1CCCC1; X74 = CC(C)(O)C=CCN(CC(=O)[*:2])[*:1]; NMeCha = CN[C@@H](CC1CCCCC1)C(=O)O; NEtLeu = CCN[C@@H](CC(C)C)C(=O)O; NMeChg = CN[C@H](C(=O)O)C1CCCCC1; NMeI = CC[C@H](C)[C@H](NC)C(=O)O; Piperidide(4-Me) = CC1CCN(*)CC1; NMeD = CN[C@@H](CC(=O)O)C(=O)O; NMeL = CN[C@@H](CC(C)C)C(=O)O; NMeV = CN[C@H](C(=O)O)C(C)C; d(β3hA) = C[C@@H](N)CC(=O)O; NMeS = CN[C@@H](CO)C(=O)O; Morpholide = C1CN(*)CCO1; NMeA = CN[C@@H](C)C(=O)O; Piperidide = C1CCN(*)CC1; dNMeA = CN[C@H](C)C(=O)O; Ac5c = NC1(C(=O)O)CCCC1; Aze = O=C(O)[C@@H]1CCN1; CH2CMe2OH = CC(C)(O)C*; Aib = CC(C)(N)C(=O)O; Isopentyl = CC(C)CC*; NEtG = CCNCC(=O)O; Sar = CNCC(=O)O; Propyl = CCC*
Listed here: items and their measured pIC50.
Scale explanation: pIC50 corresponds to minus log10 of a concentration expressed in moles per litre.

Look over these answered cases.
[
  {
    "molecule": "CC[C@H](C)[C@@H]1NC(=O)[C@H](C)N(C)C(=O)C[C@@H](C)NC(=O)[C@H](C2CCCC2)N(C)C(=O)C2(CCCC2)NC(=O)[C@@H]2CCCN2C(=O)[C@H](CCc2ccc(C(F)(F)F)c(Cl)c2)NC(=O)CN(C)C(=O)[C@H](Cc2cccc(C)c2)N(C)C(=O)[C@@H]2CCCN2C(=O)CN(C)C1=O [Compound 1083] (cyclo([Ac5c][NMeGly(cPent)][d(β3hA)][NMeA]I[Sar]P[NMePhe(3-Me)][Sar][hPhe(3-Cl-4-CF3)]P))",
    "pIC50": 7.72
  },
  {
    "molecule": "CC[C@H](C)[C@@H]1NC(=O)[C@H](CC(C)C)N(CC)C(=O)C[C@@H](C(=O)N2CCOCC2)N(C)C(=O)[C@H](C2CCCC2)N(C)C(=O)C2(CCCC2)NC(=O)[C@@H]2CCCN2C(=O)[C@H](CCc2ccc(C(F)(F)F)c(Cl)c2)NC(=O)CN(C)C(=O)[C@H](C2CCCC2)N(C)C(=O)[C@@H]2CCN2C(=O)[C@H](C)N(C)C1=O [Compound 1208] ([NEtLeu]I[NMeA][Aze][NMeGly(cPent)][Sar][hPhe(3-Cl-4-CF3)]P[Ac5c][NMeGly(cPent)][NMeD]-Morpholide; lactam N-11)",
    "pIC50": 9.16
  },
  {
    "molecule": "CC[C@H](C)[C@@H]1NC(=O)[C@H](CC(C)C)N(C)C(=O)C[C@@H](C(=O)N2CCCCC2)N(C)C(=O)[C@H](C2CCCCC2)N(C)C(=O)C2(CCCC2)NC(=O)CN(CC=CC(C)(C)O)C(=O)[C@H](CCc2ccc(C(F)(F)F)c(Cl)c2)NC(=O)CN(C)C(=O)[C@H](CC2CCCCC2)N(C)C(=O)CN(C)C(=O)CN(C)C1=O [Compound 2047] ([NMeL]I[Sar][Sar][NMeCha][Sar][hPhe(3-Cl-4-CF3)][X74][Ac5c][NMeChg][NMeD]-Piperidide; lactam N-11)",
    "pIC50": 8.24
  },
  {
    "molecule": "CC[C@H](C)[C@@H]1NC(=O)[C@H](CC(C)C)N(C)C(=O)C[C@@H](C(=O)N2CCC(C)CC2)N(C)C(=O)[C@H](C(C)C)N(C)C(=O)C2(CCCC2)NC(=O)[C@@H]2CCCN2C(=O)[C@H](CCc2ccc(C(F)(F)F)c(Cl)c2)NC(=O)CN(C)C(=O)[C@H](CC2CCCCC2)N(C)C(=O)[C@@H]2CCN2C(=O)[C@H](C)N(C)C1=O [Compound 1291] ([NMeL]I[NMeA][Aze][NMeCha][Sar][hPhe(3-Cl-4-CF3)]P[Ac5c][NMeV][NMeD]-{Piperidide(4-Me)}; lactam N-11)",
    "pIC50": 8.27
  },
  {
    "molecule": "CC[C@H](C)[C@@H]1NC(=O)[C@H](C)N(C)C(=O)C[C@@H](C)NC(=O)[C@H](C2CCCC2)N(C)C(=O)C2(CCCC2)NC(=O)[C@@H]2CCCN2C(=O)[C@H](CCc2ccc(C(F)(F)F)c(Cl)c2)NC(=O)[C@@H](C)N(C)C(=O)[C@H](CC2CCCCC2)N(C)C(=O)[C@@H]2CCN2C(=O)CN(C)C1=O [Compound 1539] (cyclo([Ac5c][NMeGly(cPent)][d(β3hA)][NMeA]I[Sar][Aze][NMeCha][dNMeA][hPhe(3-Cl-4-CF3)]P))",
    "pIC50": 7.27
  },
  {
    "molecule": "CC[C@H](C)[C@@H]1NC(=O)[C@H](CC(C)C)N(C)C(=O)C[C@@H](C)NC(=O)[C@H](CC(C)C)N(C)C(=O)C(C)(C)NC(=O)[C@H](COCC(C)(C)O)N(C)C(=O)[C@H](CCc2ccc(C(F)(F)F)c(Cl)c2)NC(=O)CN(CC)C(=O)[C@H](COCCC(C)C)N(C)C(=O)CN(C)C(=O)CN(C)C1=O [Compound 1516] (cyclo([Aib][NMeL][d(β3hA)][NMeL]I[Sar][Sar][NMeS](Isopentyl)[NEtG][hPhe(3-Cl-4-CF3)][NMeS](CH2CMe2OH)))",
    "pIC50": 6.47
  },
  {
    "molecule": "CC[C@H](C)[C@@H]1NC(=O)[C@H](C)N(C)C(=O)C[C@@H](C(=O)N2CCCCC2)N(C)C(=O)[C@H](C(C)C)N(C)C(=O)C2(CCCC2)NC(=O)[C@H](Cc2ccccc2F)N(C)C(=O)[C@H](CCc2ccc(C(F)(F)F)c(Cl)c2)NC(=O)CN(C)C(=O)[C@H](CC2CCCCC2)N(C)C(=O)CN(C)C(=O)CN(C)C1=O [Compound 492] ([NMeA]I[Sar][Sar][NMeCha][Sar][hPhe(3-Cl-4-CF3)][NMePhe(2-F)][Ac5c][NMeV][NMeD]-Piperidide; lactam N-11)",
    "pIC50": 7.92
  },
  {
    "molecule": "CCCOC[C@H]1C(=O)N(C)CC(=O)N[C@@H](CCc2ccc(C(F)(F)F)c(Cl)c2)C(=O)N2CCC[C@H]2C(=O)NC2(CCCC2)C(=O)N(C)[C@@H]([C@@H](C)CC)C(=O)N(C)[C@H](C(=O)N2CCCCC2)CC(=O)N(C)[C@@H](CC(C)C)C(=O)N[C@@H]([C@@H](C)CC)C(=O)N(C)[C@@H](C)C(=O)N2CC[C@H]2C(=O)N1C [Compound 690] ([NMeL]I[NMeA][Aze][NMeS](Propyl)[Sar][hPhe(3-Cl-4-CF3)]P[Ac5c][NMeI][NMeD]-Piperidide; lactam N-11)",
    "pIC50": 8.74
  }
]

Here's the next entry for you.
**Q:** Name the recorded pIC50 for CC[C@H](C)[C@@H]1NC(=O)[C@H](CC(C)C)N(C)C(=O)C[C@@H](C)NC(=O)[C@H](C(C)C)N(C)C(=O)C2(CCCC2)NC(=O)[C@@H]2CCCN2C(=O)[C@H](CCc2ccc(C(F)(F)F)c(F)c2)NC(=O)CN(C)C(=O)[C@H](CC2CCCCC2)N(C)C(=O)[C@@H]2CCN2C(=O)[C@H](C)N(C)C1=O [Compound 952] (cyclo([Ac5c][NMeV][d(β3hA)][NMeL]I[NMeA][Aze][NMeCha][Sar][hPhe(3-F,4-CF3)]P)) .
**A:** 6.92
